studyTarget: Fuc(a1-3)[Neu5Ac(a2-3)]Gal(b1-4)GlcNAc(b1-3)GalNAc
experiment: glycan array binding signal (z-score within array); higher = stronger binding
recordedConditions: glycan notation: IUPAC condensed, linker removed
The full list was thinned out, with the strongest signals kept by preference.
attributeMeasured: glycan array binding signal (z-score)
Numbers only.

Flo5 (Saccharomyces cerevisiae), P38894 (protein) MGSSHHHHHHSSGLVPRGSHMSGATEACLPAGQRKSGMNINFYQYSLKDSSTYSNAAYMAYGYASKTKLGSVGGQTDISIDYNIPCVSSSGTFPCPQEDSYGNWGCKGMGACSNSQGIAYWSTDLFGFYTTPTNVTLEMTGYFLPPQTGSYTFSFATVDDSAILSVGGSIAFECCAQEQPPITSTNFTINGIKPWDGSLPDNITGTVYMYAGYYYPLKVVYSNAVSWGTLPISVELPDGTTVSDNFEGYVYSFDDDLSQSNCTIPDPSIH yielded glycan array binding signal (z-score) of -0.232

These measurements were taken from the supplement of paper PMC8728848.
